# assayTarget: Toll-like receptor 9 (Homo sapiens) (UniProt Q9NR96)
# Sequence (Q9NR96 whole entry): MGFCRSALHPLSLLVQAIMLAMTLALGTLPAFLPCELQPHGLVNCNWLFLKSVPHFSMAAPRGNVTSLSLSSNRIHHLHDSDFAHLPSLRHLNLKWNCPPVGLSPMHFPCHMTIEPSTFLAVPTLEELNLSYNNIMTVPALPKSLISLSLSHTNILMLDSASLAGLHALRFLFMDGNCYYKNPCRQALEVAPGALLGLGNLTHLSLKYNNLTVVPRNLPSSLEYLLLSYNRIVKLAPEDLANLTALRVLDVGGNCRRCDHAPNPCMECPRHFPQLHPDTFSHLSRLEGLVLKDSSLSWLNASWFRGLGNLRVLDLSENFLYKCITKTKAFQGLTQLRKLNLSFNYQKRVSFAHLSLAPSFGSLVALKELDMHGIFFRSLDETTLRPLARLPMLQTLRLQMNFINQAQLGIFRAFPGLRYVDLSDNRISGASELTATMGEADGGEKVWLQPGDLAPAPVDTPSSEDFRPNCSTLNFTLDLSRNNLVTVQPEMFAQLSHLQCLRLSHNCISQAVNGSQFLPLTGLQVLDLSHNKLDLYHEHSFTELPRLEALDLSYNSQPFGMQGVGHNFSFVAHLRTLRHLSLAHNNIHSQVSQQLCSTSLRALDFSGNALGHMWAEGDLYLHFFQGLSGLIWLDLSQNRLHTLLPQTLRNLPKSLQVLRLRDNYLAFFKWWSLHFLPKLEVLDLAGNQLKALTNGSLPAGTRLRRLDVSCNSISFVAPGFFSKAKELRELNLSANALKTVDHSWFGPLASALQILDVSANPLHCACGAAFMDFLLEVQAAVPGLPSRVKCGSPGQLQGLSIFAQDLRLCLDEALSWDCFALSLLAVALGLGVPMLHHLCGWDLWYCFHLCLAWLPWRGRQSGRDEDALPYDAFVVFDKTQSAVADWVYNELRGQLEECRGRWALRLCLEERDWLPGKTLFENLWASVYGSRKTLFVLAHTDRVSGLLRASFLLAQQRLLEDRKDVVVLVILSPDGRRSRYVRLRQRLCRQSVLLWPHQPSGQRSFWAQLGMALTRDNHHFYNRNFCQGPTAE
# assayExplanation: Agonist activity at human TLR9 stably expressed in HEK293 cells co-expressing secreted alkaline phosphatase assessed as NF-kappaB induction by liquid handler-assisted reporter gene assay
# Format: cell-based
The source made the active and inactive calls. No cut-off for these calls is given here.
attributeMeasured: Activity

{"columns": ["molecule", "measured"],
 "data": [
  ["CCCCCn1c(N)nc2c(C)cccc21", "inactive"],
  ["CCCCCn1c(N)nc2cc(C)ccc21", "inactive"],
  ["Nc1nc2ccccc2n1Cc1ccccc1", "inactive"],
  ["CCCCCn1c(N)nc2c(Cl)cccc21", "inactive"],
  ["CCCCCn1c(N)nc2cnccc21", "inactive"]
]}

Below are some molecules; for each one, tell me its Activity.
1. CCCCCn1c(N)nc2c(OCc3ccccc3)cccc21
2. CCCCCn1c(N)nc2ccc3ccccc3c21

Result:
1. inactive
2. inactive

// batch mode: one Activity value per listed entry
1. CCCCCn1c(N)nc2ncccc21
2. CCCCCn1c(N)nc2cccc(C)c21
3. CCCCCn1c(N)nc2ccncc21
4. CCCCn1c(N)nc2ccccc21
5. CCCCC1(O)C(N)=Nc2ccccc21 (stereo not drawn)
6. CCCCCn1c(N)nc2c(N(C)C)cccc21
7. CCCCCn1c(N)nc2c3ccccc3ccc21

Result:
["inactive", "inactive", "inactive", "inactive", "inactive", "inactive", "inactive"]

Report Activity for every entry below.
1. CCCCCn1c(N)nc2c(CC)cccc21
2. CCCCCn1c(N)nc2c(Br)cccc21
3. CCCCCn1c(N)nc2ccc(C)cc21
4. CCCCCn1c(N)nc2c(F)cccc21
5. CCCCCn1c(N)nc2c(-c3ccccc3)cccc21

Result:
["inactive", "inactive", "inactive", "inactive", "inactive"]

The following molecules each have a reported value; give each one's Activity.
1. CCCCCn1c(N)nc2cc3ccccc3cc21
2. CCCCCn1c(NC(C)=O)nc2ccccc21
3. NCc1cccc(Cn2c(N)nc3ccccc32)c1
4. CCCCCn1c(N)nc2c(Cc3ccccc3)cccc21
5. CCCCCn1c(N)nc2cccnc21
6. CCCCCn1c(N)nc2c(O)cccc21
7. CCCCOC(=O)n1c(N)nc2ccccc21
8. CCCCCn1c(N)nc2ccccc21

Result:
inactive
inactive
inactive
inactive
inactive
inactive
inactive
inactive

Provide the reported Activity of each entry below, same order.
1. CCCCCn1c(N)nc2c(N)cccc21
2. CCCCCn1c(N)nc2c([N+](=O)[O-])cccc21
3. CCCCCn1c(N)nc2c(OC)cccc21
4. CCCCC1C(N)=Nc2ccccc21.Cl (stereo not drawn)
5. CCCCCCn1c(N)nc2ccccc21
6. CCCCCn1c(N)nc2c(C(F)(F)F)cccc21

Result:
inactive
inactive
inactive
inactive
inactive
inactive

###

# assayTarget: Toll-like receptor 4 (Homo sapiens)
# assayExplanation: Agonist activity at human TLR4 stably expressed in HEK293 cells co-expressing secreted alkaline phosphatase assessed as NF-kappaB induction by liquid handler-assisted reporter gene assay
# Assay type: cell-based
The source made the active and inactive calls. No cut-off for these calls is given here.
attributeMeasured: Activity

Some molecules with known Activity results, for comparison:
{"columns": ["molecule", "assayTarget", "measured"],
 "data": [
  ["CCCCCn1c(N)nc2cnccc21", "Toll-like receptor 4 (Homo sapiens)", "inactive"],
  ["CCCCCn1c(N)nc2c(CC)cccc21", "Toll-like receptor 4 (Homo sapiens)", "inactive"],
  ["CCCCCn1c(N)nc2c(F)cccc21", "Toll-like receptor 4 (Homo sapiens)", "inactive"],
  ["CCCCCn1c(N)nc2c([N+](=O)[O-])cccc21", "Toll-like receptor 4 (Homo sapiens)", "inactive"],
  ["CCCCCn1c(N)nc2ccncc21", "Toll-like receptor 4 (Homo sapiens)", "inactive"]
]}

Quick one: give me Activity for each item below, same order please.
1. CCCCCn1c(N)nc2ccc(C)cc21
2. CCCCC1(O)C(N)=Nc2ccccc21 (configuration not stated)
3. CCCCCn1c(N)nc2ccc3ccccc3c21
4. CCCCCn1c(N)nc2c(Cc3ccccc3)cccc21
5. CCCCCn1c(N)nc2c(O)cccc21
6. CCCCCn1c(N)nc2cc3ccccc3cc21
7. CCCCOC(=O)n1c(N)nc2ccccc21

Result:
inactive
inactive
inactive
inactive
inactive
inactive
inactive

###

# assayTarget: Nucleotide-binding oligomerization domain-containing protein 2 (Homo sapiens, UniProt Q9HC29)
# Sequence (Q9HC29 whole entry, the tested form may be a part): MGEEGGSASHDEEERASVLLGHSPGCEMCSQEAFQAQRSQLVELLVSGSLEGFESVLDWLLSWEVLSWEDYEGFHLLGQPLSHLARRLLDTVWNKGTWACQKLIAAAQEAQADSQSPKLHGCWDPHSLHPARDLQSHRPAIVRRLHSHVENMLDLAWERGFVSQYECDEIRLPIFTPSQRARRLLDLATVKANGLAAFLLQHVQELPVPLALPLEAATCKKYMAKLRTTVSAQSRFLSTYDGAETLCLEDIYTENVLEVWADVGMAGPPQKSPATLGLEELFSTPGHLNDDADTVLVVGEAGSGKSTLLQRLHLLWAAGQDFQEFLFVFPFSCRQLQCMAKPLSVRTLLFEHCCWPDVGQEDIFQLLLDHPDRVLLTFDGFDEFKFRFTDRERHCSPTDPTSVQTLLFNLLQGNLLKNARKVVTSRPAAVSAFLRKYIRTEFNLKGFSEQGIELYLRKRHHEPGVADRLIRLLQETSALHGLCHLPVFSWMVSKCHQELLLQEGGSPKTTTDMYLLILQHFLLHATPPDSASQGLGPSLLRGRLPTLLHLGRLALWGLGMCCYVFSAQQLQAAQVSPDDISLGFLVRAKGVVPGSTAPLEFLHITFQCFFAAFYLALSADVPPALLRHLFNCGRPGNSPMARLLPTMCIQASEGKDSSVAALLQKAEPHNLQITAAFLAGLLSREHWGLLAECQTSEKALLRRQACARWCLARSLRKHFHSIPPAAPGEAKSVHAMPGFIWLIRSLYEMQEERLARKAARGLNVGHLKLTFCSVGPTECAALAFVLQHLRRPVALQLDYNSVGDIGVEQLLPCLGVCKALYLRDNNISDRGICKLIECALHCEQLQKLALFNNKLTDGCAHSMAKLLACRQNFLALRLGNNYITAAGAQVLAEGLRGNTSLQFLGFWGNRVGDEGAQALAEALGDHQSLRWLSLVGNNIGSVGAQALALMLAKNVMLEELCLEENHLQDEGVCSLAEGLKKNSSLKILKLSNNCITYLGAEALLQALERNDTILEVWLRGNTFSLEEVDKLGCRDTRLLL
# assayExplanation: Agonist activity at human NOD2 stably expressed in HEK293 cells co-expressing secreted alkaline phosphatase assessed as NF-kappaB induction by liquid handler-assisted reporter gene assay
# Assay type: cell-based
Calls of active or inactive are those of the source. No cut-off for these calls is given here.
attributeMeasured: Activity

Illustrative cases are given below, each with its answer.
{"columns": ["smi", "Activity"],
 "data": [
  ["CCCCCn1c(N)nc2c(OCc3ccccc3)cccc21", "inactive"],
  ["CCCCCn1c(N)nc2ccc3ccccc3c21", "inactive"],
  ["CCCCCn1c(N)nc2c(CC)cccc21", "inactive"],
  ["CCCCCn1c(NC(C)=O)nc2ccccc21", "inactive"],
  ["CCCCCn1c(N)nc2c(OC)cccc21", "inactive"]
]}

Look at each compound and report its Activity.
1. CCCCCn1c(N)nc2cc(C)ccc21
2. CCCCCn1c(N)nc2c(Br)cccc21
3. CCCCCn1c(N)nc2c(C(F)(F)F)cccc21
4. CCCCCn1c(N)nc2cccc(C)c21

Result:
1: inactive; 2: inactive; 3: inactive; 4: inactive

Can you give me Activity for all of these, one by one?
1. NCc1cccc(Cn2c(N)nc3ccccc32)c1
2. CCCCOC(=O)n1c(N)nc2ccccc21
3. CCCCCn1c(N)nc2c(N(C)C)cccc21

Result:
inactive
inactive
inactive

Dear reader, for each entry below, please note its Activity.
1. CCCCCn1c(N)nc2c([N+](=O)[O-])cccc21
2. Nc1nc2ccccc2n1Cc1ccccc1

Result:
1. inactive
2. inactive

###

# assayTarget: Toll-like receptor 2 (Homo sapiens) (UniProt O60603)
# Sequence (O60603 whole entry): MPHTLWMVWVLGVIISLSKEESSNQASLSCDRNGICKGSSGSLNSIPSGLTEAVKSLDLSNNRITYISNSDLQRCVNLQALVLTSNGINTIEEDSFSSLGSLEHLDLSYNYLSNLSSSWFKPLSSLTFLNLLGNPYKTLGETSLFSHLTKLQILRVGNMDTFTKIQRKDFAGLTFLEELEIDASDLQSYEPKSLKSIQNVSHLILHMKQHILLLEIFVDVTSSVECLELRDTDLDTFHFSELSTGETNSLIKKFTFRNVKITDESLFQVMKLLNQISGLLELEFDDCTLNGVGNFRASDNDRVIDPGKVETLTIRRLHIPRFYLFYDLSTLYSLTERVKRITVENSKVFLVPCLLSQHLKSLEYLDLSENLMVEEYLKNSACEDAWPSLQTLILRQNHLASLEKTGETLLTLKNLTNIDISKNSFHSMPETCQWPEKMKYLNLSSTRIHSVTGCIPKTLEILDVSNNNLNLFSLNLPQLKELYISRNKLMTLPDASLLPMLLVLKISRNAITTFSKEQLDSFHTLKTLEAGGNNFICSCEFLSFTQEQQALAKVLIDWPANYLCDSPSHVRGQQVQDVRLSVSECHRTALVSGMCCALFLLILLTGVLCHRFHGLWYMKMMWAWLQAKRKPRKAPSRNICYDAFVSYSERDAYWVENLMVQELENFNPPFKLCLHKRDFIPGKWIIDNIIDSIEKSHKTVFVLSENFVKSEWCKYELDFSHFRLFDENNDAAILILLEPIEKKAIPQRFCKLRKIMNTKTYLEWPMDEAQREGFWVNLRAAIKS
# assayExplanation: Agonist activity at human TLR2 stably expressed in HEK293 cells co-expressing secreted alkaline phosphatase assessed as NF-kappaB induction by liquid handler-assisted reporter gene assay
# Format: cell-based
Activity calls are given as the source filed them. The rule behind the calls is not given here.

{"columns": ["smi", "Activity"],
 "data": [
  ["CCCCCn1c(N)nc2c(F)cccc21", "inactive"],
  ["CCCCCn1c(N)nc2ccc3ccccc3c21", "inactive"],
  ["CCCCCn1c(N)nc2c(O)cccc21", "inactive"]
]}

###

# assayTarget: Toll-like receptor 3 (Homo sapiens)
# assayExplanation: Agonist activity at human TLR3 stably expressed in HEK293 cells co-expressing secreted alkaline phosphatase assessed as NF-kappaB induction by liquid handler-assisted reporter gene assay
# Type: cell-based
The source made the active and inactive calls. The rule behind the calls is not given here.

{"columns": ["smi", "assayTarget", "Activity"],
 "data": [
  ["CCCCCn1c(NC(C)=O)nc2ccccc21", "Toll-like receptor 3 (Homo sapiens)", "inactive"],
  ["NCc1cccc(Cn2c(N)nc3ccccc32)c1", "Toll-like receptor 3 (Homo sapiens)", "inactive"],
  ["CCCCCn1c(N)nc2c(CC)cccc21", "Toll-like receptor 3 (Homo sapiens)", "inactive"]
]}
